target: PAK4 (Homo sapiens, UniProt O96013); experiment: PAK4 HTRF assay; format: biochemical; conditions: PAK4 Ki, HTRF; average of two independent experiments
Sequence (O96013 whole entry): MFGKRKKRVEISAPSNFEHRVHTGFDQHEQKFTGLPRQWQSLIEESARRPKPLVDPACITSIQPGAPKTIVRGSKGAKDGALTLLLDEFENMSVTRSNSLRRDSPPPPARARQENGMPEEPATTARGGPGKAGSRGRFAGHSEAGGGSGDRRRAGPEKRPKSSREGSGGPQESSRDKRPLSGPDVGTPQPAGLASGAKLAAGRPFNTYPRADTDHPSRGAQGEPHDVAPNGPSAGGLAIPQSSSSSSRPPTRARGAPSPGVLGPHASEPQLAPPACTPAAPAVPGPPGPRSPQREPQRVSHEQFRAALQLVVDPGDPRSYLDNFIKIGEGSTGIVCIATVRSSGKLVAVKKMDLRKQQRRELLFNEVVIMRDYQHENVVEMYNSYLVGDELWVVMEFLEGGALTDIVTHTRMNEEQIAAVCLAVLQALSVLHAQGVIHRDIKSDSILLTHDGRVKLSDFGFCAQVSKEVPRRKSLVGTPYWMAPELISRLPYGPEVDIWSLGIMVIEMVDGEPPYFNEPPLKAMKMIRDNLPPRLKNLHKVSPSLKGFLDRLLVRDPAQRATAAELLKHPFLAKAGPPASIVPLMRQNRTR
Dear colleague, classification is by Ki, with ranges listed here: lowest (below 40 nM), middle (40 nM to below 300 nM), highest (300 nM or more)

| compound | label |
| --- | --- |
| Nc1nccc(-n2cc(C(=O)N3CCC[C@@H](O)C3)c3ccc(C#CC4(O)CCCCC4)cc32)n1 | middle |

[Q] Category lookup for the molecule CN1CCN(C(=O)c2cn(-c3ccnc(N)n3)c3cc(C#CC4(O)CCCCC4)ccc23)CC1
[A] lowest

[Q] Classify this molecule: OC1(C#Cc2ccc3ccn(-c4ccnc(Nc5ccc(F)c(Cl)c5)n4)c3c2)CCCCC1
[A] middle

[Q] Place this molecule in its band: OC1(C#Cc2ccc3ccn(-c4ccnc(Nc5ccccc5F)n4)c3c2)CCCCC1
[A] highest

[Q] Lab log: Nc1nccc(-n2cc(C(=O)N3CCC[C@H](N)C3)c3ccc(C#CC4(O)CCCCC4)cc32)n1 — assign Ki category
[A] lowest

[Q] Returns: class label. Input: Nc1nccc(-n2cc(C(=O)NCc3ccccc3)c3ccc(C#CC4(O)CCCCC4)cc32)n1
[A] highest

[Q] Please classify: Nc1nccc(-n2cc(C(=O)N3CC[C@H](N)C3)c3ccc(C#CC4(O)CCCCC4)cc32)n1
[A] lowest

[Q] Looking at Nc1nccc(-n2ccc3ccc(C#CC4(O)CCCCC4)nc32)n1 , which class would you pick?
[A] middle

---

target: PAK4 (Homo sapiens, UniProt O96013); experiment: PAK4 HTRF assay; type: biochemical; settings: Ligand efficiency = (−1.4 Log Ki)/(n heavy atoms), PAK4 Ki
Documented LE across a set of compounds
Give the figure by itself; no unit, no explanation.

Some compounds with recorded LE:
| compound | experimental_value |
| --- | --- |
| Nc1nccc(-n2cc(C(=O)NC3CCNCC3)c3ccc(C#CC4(O)CCCCC4)cc32)n1 [Compound 44] | 0.32 |
| C[C@@H]1CN(C(=O)c2cn(-c3ccnc(N)n3)c3cc(C#CC4(O)CCCCC4)ccc23)CCN1 [Compound 54] | 0.27 |
| Nc1nccc(-n2cc(C(=O)N3CCC[C@@H](O)C3)c3ccc(C#CC4(O)CCCCC4)cc32)n1 [Compound 49] | 0.27 |

Lab note: measured LE of Nc1nccc(-n2cc(C(=O)N3CCNC(=O)C3)c3ccc(C#CC4(O)CCCCC4)cc32)n1 [Compound 56] was 0.31

The recorded LE for Nc1nccc(-n2ncc3ccc(C#CC4(O)CCCCC4)cc32)n1 [Compound 6] is 0.40

---

Below, each of the molecules is paired with its reported pKi value.
target: PAK1 (Homo sapiens); assay: PAK1 FRET-based Z'-Lyte assay; format: biochemical; conditions: at least two duplicate experiments, SEM < ±20%
Kindly note that pKi refers to -log10 of the concentration in mol/L and answer with the value alone.

| molecule | endpoint | experimental_value |
| --- | --- | --- |
| Nc1nccc(-n2cc(C(=O)N3CCC(N)CC3)c3ccc(C#CC4(O)CCCCC4)cc32)n1 [Compound 43] | pKi | 5.79 |
| Nc1nccc(-n2cc(C(=O)N3CCNCC3)c3ccc(C#CC4(O)CCCCC4)cc32)n1 [Compound 42] | pKi | 5.30 |
| Nc1nccc(-n2cc(C(=O)N[C@@H]3CCCNC3)c3ccc(C#CC4(O)CCCCC4)cc32)n1 [Compound 48] | pKi | 5.15 |

Measured pKi of Nc1nccc(-n2cc(C(=O)N3CC[C@H](N)C3)c3ccc(C#CC4(O)CCCCC4)cc32)n1 [Compound 53] : 5.54

---

molecular target: PAK4 (Homo sapiens); experiment: PAK4 HTRF assay; assay type: biochemical
endpoint: IC50 (nM)
State the answer as a number, implicitly in nM.

Entry under test: Nc1nccc(-n2cc(C(=O)N3CCC[C@@H](N)C3)c3ccc(C#CC4(O)CCCCC4)cc32)n1 . Its IC50 was 6.3

---

biological target: PAK1 (Homo sapiens, UniProt Q13153); test: PAK1 FRET-based Z'-Lyte assay; assay type: biochemical
Sequence (Q13153 whole entry): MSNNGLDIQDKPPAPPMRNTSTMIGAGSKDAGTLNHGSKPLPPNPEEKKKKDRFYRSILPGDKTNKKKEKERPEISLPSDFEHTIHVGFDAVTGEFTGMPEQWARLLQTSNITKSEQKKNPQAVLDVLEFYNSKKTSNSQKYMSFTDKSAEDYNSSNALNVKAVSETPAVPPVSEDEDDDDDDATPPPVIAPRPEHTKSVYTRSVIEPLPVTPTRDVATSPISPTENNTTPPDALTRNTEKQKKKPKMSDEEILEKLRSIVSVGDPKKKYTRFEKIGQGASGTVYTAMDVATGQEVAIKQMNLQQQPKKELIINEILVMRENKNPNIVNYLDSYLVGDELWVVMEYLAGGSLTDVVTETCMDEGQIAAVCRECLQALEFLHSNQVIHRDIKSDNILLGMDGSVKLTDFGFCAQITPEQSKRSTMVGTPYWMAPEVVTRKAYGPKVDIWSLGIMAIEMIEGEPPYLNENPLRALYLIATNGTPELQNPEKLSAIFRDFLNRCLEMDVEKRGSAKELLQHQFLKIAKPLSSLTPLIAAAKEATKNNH
endpoint: pKi
Recall that pKi is obtained by taking minus log10 of the concentration measured in molar.

The recorded pKi for Nc1nccc(-n2cc(C(=O)N3CCC[C@@H](N)C3)c3ccc(C#CC4(O)CCCCC4)cc32)n1 [Compound 47] is 5.16

---

target: UniProt:O96013; experiment: PAK4 HTRF assay; assay type: biochemical; conditions: PAK4 Ki, HTRF; average of two independent experiments
endpoint: pKi
Lab note: report pKi as minus log10 of the concentration in molar units, number only.

Solved entries:
| compound | pKi |
| --- | --- |
| C[C@@H]1CN(C(=O)c2cn(-c3ccnc(N)n3)c3cc(C#CC4(O)CCCCC4)ccc23)CCN1 | 6.83 |
| Nc1cc(-n2ccc3ccc(C#CC4(O)CCCCC4)cc32)ncn1 | 6.64 |
| COCCNc1nccc(-n2ccc3ccc(C#CC4(O)CCCCC4)cc32)n1 | 6.17 |
| Nc1cc(-n2ccc3ccc(C#CC4(O)CCCCC4)cc32)nc(N)n1 | 6.43 |
| Nc1nccc(-n2cc(C(=O)N3CC[C@@H](N)C3)c3ccc(C#CC4(O)CCCCC4)cc32)n1 | 7.59 |
| OC1(C#Cc2ccc3ccn(-c4ccnc(NCc5ccc(F)cc5)n4)c3c2)CCCCC1 | 6.54 |
| OC1(C#Cc2ccc3ccn(-c4ccnc(NCc5ccccc5F)n4)c3c2)CCCCC1 | 6.65 |
| OC1(C#Cc2ccc3ccn(-c4ccnc(Nc5ccccc5C(F)(F)F)n4)c3c2)CCCCC1 | 6.76 |

Form field pKi, entry Nc1nccc(-n2cc(C(=O)Nc3cc(O)[nH]n3)c3ccc(C#CC4(O)CCCCC4)cc32)n1 : 6.42

Note to self: pKi recorded for Nc1nccc(-n2cc(C(=O)Nc3cc[nH]n3)c3ccc(C#CC4(O)CCCCC4)cc32)n1 was 6.62

// pKi value for NC(=O)c1cn(-c2ccnc(N)n2)c2cc(C#CC3(O)CCCCC3)ccc12 : 7.85

---

biological target: PAK4 (Homo sapiens, UniProt O96013); assay: PAK4 HTRF assay; type: biochemical; settings: Ligand lipophilicity efficiency = (−Log Ki) − (cLogP), PAK4 Ki
endpoint: LLE
Please give only the number in your answer, with no unit.

Recorded results for 4 molecules are shown here.
| molecule | tgt | LLE |
| --- | --- | --- |
| Nc1nccc(-n2cc(C(=O)N3CCC(N)CC3)c3ccc(C#CC4(O)CCCCC4)cc32)n1 [Compound 43] | PAK4 (Homo sapiens, UniProt O96013) | 4.16 |
| Nc1nccc(-n2cc(C(=O)N[C@@H]3CCCNC3)c3ccc(C#CC4(O)CCCCC4)cc32)n1 [Compound 48] | PAK4 (Homo sapiens, UniProt O96013) | 5.42 |
| Nc1nccc(-n2cc(C(=O)N3CCNCC3)c3ccc(C#CC4(O)CCCCC4)cc32)n1 [Compound 42] | PAK4 (Homo sapiens, UniProt O96013) | 4.97 |
| Nc1nccc(-n2cc(C(=O)N3CC[C@@H](N)C3)c3ccc(C#CC4(O)CCCCC4)cc32)n1 [Compound 51] | PAK4 (Homo sapiens, UniProt O96013) | 4.42 |

# LLE of Nc1nccc(-n2cc(C(=O)N3CCNC(=O)C3)c3ccc(C#CC4(O)CCCCC4)cc32)n1 [Compound 56] = 5.17

Entry Nc1nccc(-n2cc(C(=O)N[C@H]3CCNC3)c3ccc(C#CC4(O)CCCCC4)cc32)n1 [Compound 50] — recorded LLE = 4.40

---

target: UniProtKB O96013; assay: PAK4 HTRF assay; format: biochemical; conditions: PAK4 Ki, HTRF; average of two independent experiments
# yes (1) = Ki below 30 nM (exclusive); no (0) = Ki at/above 30 nM

Past entries and their recorded results:
| compound | label |
| --- | --- |
| Nc1nccc(-n2cc(C(=O)N3CCC(N)CC3)c3ccc(C#CC4(O)CCCCC4)cc32)n1 [Compound 43] | no (0) |
| Nc1nccc(-n2cc(C(=O)N[C@H]3CCNC3)c3ccc(C#CC4(O)CCCCC4)cc32)n1 [Compound 50] | yes (1) |
| CNC(=O)c1cn(-c2ccnc(N)n2)c2cc(C#CC3(O)CCCCC3)ccc12 [Compound 40] | no (0) |
| CN(C)C(=O)c1cn(-c2ccnc(N)n2)c2cc(C#CC3(O)CCCCC3)ccc12 [Compound 39] | no (0) |
| Nc1nccc(-n2cc(C(=O)N3CCNCC3)c3ccc(C#CC4(O)CCCCC4)cc32)n1 [Compound 42] | yes (1) |
| Cc1ccccc1Nc1nccc(-n2ccc3ccc(C#CC4(O)CCCCC4)cc32)n1 [Compound 22] | no (0) |

[Q] Check if Ki falls below 30 nM for Cc1cnc(N)nc1-n1ccc2ccc(C#CC3(O)CCCCC3)cc21 [Compound 5d] .
[A] no (0)
